Just for reference, patent US7579371B2 is where these values come from.

# Test system: HT-29
# test description: Cell growth inhibition assay (resazurin, 48 h)
# Format: cell-based, human
# test parameters: HT-29, 48 h
# Experimental: RPMI 8226 (CCL-155), HT-29 (HTB-38), and B16-F10 (CRL-6475) cells were purchased from ATCC. RPMI 8226 cells were maintained in RPMI 1640 media supplemented with 10% (v/v) FBS, 2 mM L-glutamine, 1 mM sodium pyruvate and Penicillin/Streptomycin at 100 IU/ml and 100 μg/ml, respectively. […]
assay endpoint: pEC50
Please report pEC50 as the negative decimal logarithm of the molar concentration, giving only the number.

I have this compound here, C[C@@]12OC(=O)[C@]1([C@@H](O)[C@@H]1C=CCCC1)NC(=O)[C@@H]2CCCl [Formula II-16, Salinosporamide A] , and I need its recorded pEC50.
7.40
